Reported Population Normal (%) by item:
tested on: HEK-293T; assay: Multiplex assay against HEK293T; type: toxicity, cell-based; conditions: human, 12 h, 10 µM, compound concentration 10 uM, replicate 1
Reply with just the number (in %).

| Molecule | Population Normal (%) |
| --- | --- |
| COc1ccc(-c2ccc3c(N4CCOCC4)nc(N4C[C@@H](C)O[C@@H](C)C4)nc3n2)cc1CO | 47 |
| CN1CCC(=C2c3ccccc3CC(=O)c3sccc32)CC1.O=C(O)/C=C/C(=O)O [KETOTIFEN FUMARATE] | 89 |
| O=C(Cc1ccc(-c2ccc(OCCN3CCOCC3)cc2)cn1)NCc1ccccc1 | 81 |
| COc1cccc2cc(-c3nc([C@H]4CC[C@H](C(=O)O)CC4)n4ncnc(N)c34)[nH]c12 | 77 |
| CCCS(=O)(=O)c1nc(NC2CC2)cc(-c2ccc3c(ccn3C3CC(C)(C)NC(C)(C)C3)c2)n1 | 90 |
| COc1cc(N2CCN(C)CC2)ccc1Nc1ncc2c(n1)N(C)c1ccccc1C(=O)N2C | 86 |
| CCOc1cc(C(=O)N2CCC(N3CCN(C)CC3)CC2)ccc1Nc1ncc2c(n1)N(C1CCCC1)c1ccccc1C(=O)N2C | 84 |
| CCOc1cc2ncc(C#N)c(Nc3ccc(OCc4ccccn4)c(Cl)c3)c2cc1NC(=O)/C=C/CN(C)C | 70 |
| CCn1c(=O)c(-c2ccc(-c3cncs3)cc2Cl)cc2cnc(Nc3ccc(N4CCN(C)CC4)cc3)nc21 | 37 |
| Cc1ccc(C(=O)Nc2cccc(C(F)(F)F)c2)cc1Nc1nc(-c2cccnc2)nc2c1cnn2C | 80 |

Look up and report measured Population Normal (%) for this entry: `COc1ccc(S(=O)(=O)N(CCO)c2ccccc2CN(C)C/C=C/c2ccc(Cl)cc2)cc1.O=P(O)(O)O` 91
